Listed here are molecules together with their documented IC50.
Test system: NCI-H1650
Assay: Antiproliferative activity against human NCI-H1650 cells assessed as inhibition of cell growth incubated for 96 hrs by MTT based ELISA
Assay type: functional
Details: NCI-H1650, 96 h
Answer with a number only, understood to be in nM.

Illustrative cases are given below, each with its answer.
CCc1c2c(nc3ccc(OC(=O)N4CCC(N5CCCCC5)CC4)cc13)-c1cc3c(c(=O)n1C2)COC(=O)[C@]3(O)CC    6800
COc1cc([C@@H]2c3cc4c(cc3[C@@H](O[C@@H]3O[C@@H]5CO[C@@H](C)O[C@H]5[C@H](O)[C@H]3O)[C@H]3COC(=O)[C@H]23)OCO4)cc(OC)c1O [ETOPOSIDE]    2650
COc1ccc2c(c1)c1ncc3ccccc3c1n2CCCC(=O)NO    1020

Ask: I'm curious: which IC50 was measured for CN(C)CCCn1c2cc3c(cc2c2ncc4ccccc4c21)OCO3 tested on NCI-H1650?
Result: 880
